measurementTarget: Nicotinic acetylcholine receptor alpha9/alpha10 (Rattus norvegicus, UniProt P43144+Q9JLB5)
Sequence (P43144 whole entry): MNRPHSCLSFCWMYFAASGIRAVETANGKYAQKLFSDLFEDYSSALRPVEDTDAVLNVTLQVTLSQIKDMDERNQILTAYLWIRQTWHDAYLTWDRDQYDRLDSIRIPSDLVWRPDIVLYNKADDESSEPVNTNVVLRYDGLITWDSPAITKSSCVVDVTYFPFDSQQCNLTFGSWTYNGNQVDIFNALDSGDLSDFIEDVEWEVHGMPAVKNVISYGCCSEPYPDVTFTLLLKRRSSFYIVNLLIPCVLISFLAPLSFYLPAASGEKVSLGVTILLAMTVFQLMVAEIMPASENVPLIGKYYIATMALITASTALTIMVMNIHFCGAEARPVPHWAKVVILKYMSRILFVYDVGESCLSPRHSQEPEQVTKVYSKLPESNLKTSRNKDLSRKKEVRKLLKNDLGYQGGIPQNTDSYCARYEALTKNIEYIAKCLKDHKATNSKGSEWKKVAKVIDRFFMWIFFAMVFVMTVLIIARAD
Sequence (Q9JLB5 whole entry): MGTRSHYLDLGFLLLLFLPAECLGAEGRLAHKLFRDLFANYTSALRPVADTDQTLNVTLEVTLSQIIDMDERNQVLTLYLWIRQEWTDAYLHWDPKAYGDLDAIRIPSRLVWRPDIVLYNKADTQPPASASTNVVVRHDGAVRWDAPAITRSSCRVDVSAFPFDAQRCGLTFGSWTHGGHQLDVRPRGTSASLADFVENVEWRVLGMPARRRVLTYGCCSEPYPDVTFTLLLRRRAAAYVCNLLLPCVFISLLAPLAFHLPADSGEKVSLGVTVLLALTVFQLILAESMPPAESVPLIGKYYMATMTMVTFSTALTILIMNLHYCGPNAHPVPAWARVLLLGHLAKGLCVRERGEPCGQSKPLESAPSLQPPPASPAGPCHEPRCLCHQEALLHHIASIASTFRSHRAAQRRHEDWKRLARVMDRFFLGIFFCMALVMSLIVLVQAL
protocolSummary: Inhibition of rat alpha9alpha10 nAChR expressed in Xenopus laevis oocytes assessed as inhibition of Ach-induced response at -80 mV holding potential preincubated for 5 mins followed by Ach stimulation by two electrode voltage-clamp assay
pIC50: −log10 of the molar value. Peptide text beside a SMILES is read from it.

| compound | pIC50 |
| --- | --- |
| CC[C@H](C)[C@H](NC(=O)[C@H](CCC(=O)O)NC(=O)[C@@H]1CCCN1C(=O)[C@H](Cc1cnc[nH]1)NC(=O)[C@H](CC(=O)O)NC(=O)[C@H](Cc1ccc(O)cc1)NC(=O)[C@H](CCCNC(=N)N)NC(=O)[C@H](CS)NC(=O)[C@H](CCCNC(=N)N)NC(=O)[C@@H]1CCCN1C(=O)[C@H](CC(=O)O)NC(=O)[C@H](CO)NC(=O)[C@H](CS)NC(=O)[C@H](CS)NC(=O)CN)C(=O)N[C@@H](CS)C(N)=O (H-GCCSDPRCRYDHPEIC-NH2) | 5.31 |
